Molecular target: T1, human interleukin 12 (p70 heterodimer of p35 and p40) (human, UniProt P29459 23-219; P29460 23-328)
T1 construct: Recombinant human IL-12; also called hIL-12; IL-12
T1 sequence (looked up) 1: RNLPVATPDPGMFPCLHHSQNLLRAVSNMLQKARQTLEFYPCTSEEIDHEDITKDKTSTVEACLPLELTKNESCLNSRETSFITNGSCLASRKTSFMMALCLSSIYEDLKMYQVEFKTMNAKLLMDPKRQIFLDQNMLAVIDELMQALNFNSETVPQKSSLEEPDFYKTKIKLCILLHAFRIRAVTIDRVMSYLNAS
T1 sequence (looked up) 2: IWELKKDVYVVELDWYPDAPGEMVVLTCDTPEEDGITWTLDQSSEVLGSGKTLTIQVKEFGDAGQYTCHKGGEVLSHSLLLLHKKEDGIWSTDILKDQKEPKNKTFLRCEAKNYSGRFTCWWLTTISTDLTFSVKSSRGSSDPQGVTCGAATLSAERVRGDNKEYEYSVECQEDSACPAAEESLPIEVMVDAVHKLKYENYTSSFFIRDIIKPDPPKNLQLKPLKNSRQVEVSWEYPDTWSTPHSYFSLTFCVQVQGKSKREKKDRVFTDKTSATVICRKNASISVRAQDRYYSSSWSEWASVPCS
Assay: SPR (BIAcore), off-rate
measured quantity: koff
Answer by giving the amount and then stating its unit.

Request: So what does the record say about koff for SEQ ID NO: 506 (Y61, D at L50) (antibody, V domains shown) VH: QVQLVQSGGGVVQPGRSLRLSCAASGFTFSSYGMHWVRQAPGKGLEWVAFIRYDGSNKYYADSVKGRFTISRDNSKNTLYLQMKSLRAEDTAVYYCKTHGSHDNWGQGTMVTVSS VL: SYVLTQPPSVSGTPGQRVTISCSGGRSNIGSNTVKWYQQLPGTAPKLLIYDNDQRPSGVPDRFSGSKSGTSASLAITGVQAEDEADYYCQSYDRGTHPALLFGTGTKVTVLG ?
Result: 0.000348 s⁻¹

Request: Value lookup for koff; key = SEQ ID NO: 533 (Y61, P at L53) (antibody, V domains shown) VH: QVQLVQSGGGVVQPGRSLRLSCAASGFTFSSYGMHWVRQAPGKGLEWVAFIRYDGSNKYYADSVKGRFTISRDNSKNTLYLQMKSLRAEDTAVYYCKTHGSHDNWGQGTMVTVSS VL: SYVLTQPPSVSGTPGQRVTISCSGGRSNIGSNTVKWYQQLPGTAPKLLIYGNDPRPSGVPDRFSGSKSGTSASLAITGVQAEDEADYYCQSYDRGTHPALLFGTGTKVTVLG
Result: 0.000974 s⁻¹
